# TARGET_SYSTEM: 5-hydroxytryptamine receptor 1B (Homo sapiens)
# Sequence (P28222 whole entry): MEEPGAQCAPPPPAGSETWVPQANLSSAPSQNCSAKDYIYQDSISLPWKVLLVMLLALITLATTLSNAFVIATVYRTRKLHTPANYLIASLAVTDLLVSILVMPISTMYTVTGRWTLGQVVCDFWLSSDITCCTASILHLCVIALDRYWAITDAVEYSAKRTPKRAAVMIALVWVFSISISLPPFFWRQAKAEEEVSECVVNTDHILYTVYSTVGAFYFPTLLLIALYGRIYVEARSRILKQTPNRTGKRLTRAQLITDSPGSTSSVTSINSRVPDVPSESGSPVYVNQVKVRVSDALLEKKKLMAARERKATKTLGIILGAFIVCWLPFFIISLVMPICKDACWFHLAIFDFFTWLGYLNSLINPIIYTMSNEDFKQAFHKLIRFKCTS
ENDPOINT_LABEL: Ki (nM)
Quick note: give the figure in nM, leave out the unit.

query: Specify Ki for Cc1ccc2c(N3CCN(CCc4ccc5c(c4)NC(=O)CO5)CC3)ccc(F)c2n1 , system 5-hydroxytryptamine receptor 1B (Homo sapiens).
result: 126

query: Specify Ki for Cc1ccc2c(N3CCN(CCc4ccc5c(c4)NC(=O)CO5)[C@@H](C)C3)cccc2n1 , system 5-hydroxytryptamine receptor 1B (Homo sapiens).
result: 1.26

query: Specify Ki for Cc1cc(N2CCN(CCc3ccc4c(c3)NC(=O)CO4)CC2)c2ccc(C)nc2c1 , system 5-hydroxytryptamine receptor 1B (Homo sapiens).
result: 0.631

query: Specify Ki for Cc1ccc2c(N3CCN(CCc4ccc5c(c4)NC(=O)CO5)CC3)cc(F)cc2n1 , system 5-hydroxytryptamine receptor 1B (Homo sapiens).
result: 2.51

query: Specify Ki for O=C1COc2ccc(CCN3CCN(c4cccc5cccnc45)CC3)cc2N1 , system 5-hydroxytryptamine receptor 1B (Homo sapiens).
result: 31.6

query: Specify Ki for O=C1COc2ccc(CCN3CCN(c4cccc5nc(-c6ccccc6)ccc45)CC3)cc2N1 , system 5-hydroxytryptamine receptor 1B (Homo sapiens).
result: 0.316

query: Specify Ki for Cc1ccc2c(N3CCN(CCc4ccc5c(c4F)NC(=O)CO5)CC3)cccc2n1 , system 5-hydroxytryptamine receptor 1B (Homo sapiens).
result: 0.398

query: Specify Ki for CCN1C(=O)COc2ccc(CCN3CCN(c4cccc5nc(C)ccc45)CC3)cc21 , system 5-hydroxytryptamine receptor 1B (Homo sapiens).
result: 0.794

query: Specify Ki for CC1(C)Cc2cccc(N3CCN(CCc4ccc5c(c4)NC(=O)CO5)CC3)c2O1 , system 5-hydroxytryptamine receptor 1B (Homo sapiens).
result: 0.631

query: Specify Ki for O=C1COc2ccc(CCN3CCN(c4nccc5ccccc45)CC3)cc2N1 , system 5-hydroxytryptamine receptor 1B (Homo sapiens).
result: 0.794

query: Specify Ki for Cc1ccc2c(N3CCN(CCc4cc(F)c5c(c4)NC(=O)CO5)CC3)cccc2n1 , system 5-hydroxytryptamine receptor 1B (Homo sapiens).
result: 1
